- EXPERIMENTAL_TARGET: Low Density Lipoprotein Receptor (LDLR), recombinant (UniProt P01130 22-788)
- METHOD: SPR; HBS + 0.005% P20, DMPC complex
PROPERTY_LABEL: Kd (µM)

LASHLRKLRKRLLRSLVSQYFQTVTDYGKDLM [T-065]; 0.18
T-069 (peptide) peptide: VRGRLVQYRGEVQAMLGQSTEELRVRLASHLRKLRKRLLRDADDLQKRLAVYQA; 0.56
LASHLRKLRKRLLRDGDKLQDRLAEYQARAKEAFDR [T-048]; 666
T-068 (peptide) peptide: MEDVRGRLVQYRGEVQAMLGQSTEELRVRLASHLRKLRKRLLRDADDLQKRLAVYQA; 0.66
HLRKLRKRLLRDGDKLQKRLAEYQARAKEAFDR [T-052]; 202
HLRKLRKRLLRDGDKLYDRLAEYYARAKEAFDR [T-062]; 52.9
